Molecular target: human TLR9 (Homo sapiens (Human))
Sequence (Q9NR96 26-1032): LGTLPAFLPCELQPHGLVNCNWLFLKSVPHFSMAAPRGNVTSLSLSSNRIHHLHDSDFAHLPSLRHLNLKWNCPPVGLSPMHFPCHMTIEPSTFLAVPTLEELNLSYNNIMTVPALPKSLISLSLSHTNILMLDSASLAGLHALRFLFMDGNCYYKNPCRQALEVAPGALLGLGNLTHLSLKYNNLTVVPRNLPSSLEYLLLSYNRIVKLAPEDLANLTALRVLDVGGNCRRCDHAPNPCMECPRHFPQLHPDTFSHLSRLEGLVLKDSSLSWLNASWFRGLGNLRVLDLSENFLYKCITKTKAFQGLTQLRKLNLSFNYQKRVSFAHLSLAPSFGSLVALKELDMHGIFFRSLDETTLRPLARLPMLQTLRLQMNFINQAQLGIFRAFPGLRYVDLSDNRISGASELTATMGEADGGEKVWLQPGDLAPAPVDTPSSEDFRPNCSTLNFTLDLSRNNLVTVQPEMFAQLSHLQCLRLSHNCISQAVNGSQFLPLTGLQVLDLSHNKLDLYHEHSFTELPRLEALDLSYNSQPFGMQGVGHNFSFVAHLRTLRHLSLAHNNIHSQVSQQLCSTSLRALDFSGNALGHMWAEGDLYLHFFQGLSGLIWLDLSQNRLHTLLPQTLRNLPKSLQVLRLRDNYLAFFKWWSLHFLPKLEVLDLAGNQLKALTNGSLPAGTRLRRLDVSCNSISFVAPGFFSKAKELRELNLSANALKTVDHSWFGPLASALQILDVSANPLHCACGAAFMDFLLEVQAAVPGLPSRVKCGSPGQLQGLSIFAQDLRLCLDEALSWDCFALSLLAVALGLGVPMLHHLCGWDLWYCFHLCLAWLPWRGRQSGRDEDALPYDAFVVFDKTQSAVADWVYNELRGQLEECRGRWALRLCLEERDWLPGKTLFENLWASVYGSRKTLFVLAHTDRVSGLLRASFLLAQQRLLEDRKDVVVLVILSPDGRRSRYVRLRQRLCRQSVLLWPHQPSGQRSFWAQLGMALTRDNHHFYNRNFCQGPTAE
Assay: TLR9 inhibition reporter assay (HEK-Blue, SEAP)
Conditions: HEK-Blue cells overexpressing human TLR9, ODN2006 5 nM stimulation
Decision: IC50 beneath 3000 nM gives yes (1); IC50 meeting or exceeding 3000 nM gives no (0).

Given the entry Cc1cc(-c2[nH]c3ccc(-c4nnc(C5CCCN(C(C)C)C5)[nH]4)cc3c2C(C)C)ccn1 (stereo not drawn) [Example 204] , would its reported IC50 be below 3000 nM?
yes (1)

Please determine if `COc1ccc(-c2[nH]c3ccc(-c4cccc(N5CCN(C(C)C)CC5)c4)cc3c2C(C)C)cc1OC` is below 3000 nM in terms of IC50.
no (0)

IC50 under 3000 nM? Item: `COc1ccc(-c2[nH]c3ccc(-c4nnc(C5CCN(CC(=O)N(C)C)CC5)o4)cc3c2C(C)C)cc1OC`
no (0)

Does this compound meet the criterion IC50 < 3000 nM? Cc1cc(-c2[nH]c3ccc(-c4nc(C(=O)NCCC5CCCN5)co4)cc3c2C(C)C)cc(C)n1 (stereo not drawn)
yes (1)

Lab note: IC50 threshold 3000 nM. Does this compound come in strictly under it? `Cc1cc(-c2[nH]c3ccc(-c4cccc(C(=O)NC5CCN(C(C)C)CC5)c4)cc3c2C(C)C)ccn1`
no (0)

Could you please tell me whether IC50 recorded for `COc1ccc(-c2[nH]c3ccc(-c4cccc(C(=O)N(C)CCc5ccccn5)c4)cc3c2CC(F)(F)F)cc1OC` is less than 3000 nM?
no (0)

Does `CC(C)c1c(-c2ccnc3[nH]ncc23)[nH]c2ccc(-c3ccc4c(cnn4C)c3)cc12` have IC50 strictly under 3000 nM?
no (0)

Is IC50 strictly under 3000 nM for the entry `CNC(=O)c1ccc(-c2ccc3[nH]c(-c4cc(C)nc(C)c4)c(C(C)C)c3c2)cn1` ?
no (0)

In plain terms, does `CC(=O)N1CCN(Cc2nnc(-c3ccc4[nH]c(-c5ccnc6[nH]ncc56)c(C(C)C)c4c3)o2)CC1` come in under 3000 nM for IC50?
no (0)

is_below(IC50, 3000 nM) for `COc1ccc(-c2[nH]c3ccc(-c4cccc(C(=O)N[C@H]5CC[C@H](N)CC5)c4)cc3c2C(C)C)cc1OC` ?
yes (1)

Strictly below 3000 nM: is that where IC50 of `COc1ccc(-c2[nH]c3ccc(-c4cnc(Cl)n4C)cc3c2C(C)C)cc1OC` sits?
no (0)

Does `CNC(=O)CN1CCc2cc(-c3ccc4[nH]c(-c5cc(C)nc(C)c5)c(C(C)C)c4c3)sc2C1` have IC50 strictly under 3000 nM?
yes (1)

Dear reviewer, please state whether `COc1ccc(-c2[nH]c3ccc(-c4nnc(C)o4)cc3c2C(C)C)cc1OC` has IC50 strictly beneath 3000 nM.
no (0)

IC50 strictly < 3000 nM for this compound? `CC(C)c1c(-c2ccnc3[nH]ncc23)[nH]c2ccc(-c3nnc(CN4CCC[C@H]4C(N)=O)o3)cc12`
no (0)

Quick check: IC50 of `COc1ccc(-c2[nH]c3ccc(-c4ccc(N5CCN(C(C)C)CC5)cc4)cc3c2C(C)C)cc1OC` under 3000 nM?
yes (1)

Given `Cc1cc(-c2[nH]c3ccc(-c4ccc(N5CCNCC5)nc4)cc3c2C(C)C)ccn1` , is recorded IC50 strictly lower than 3000 nM?
yes (1)

Identify whether the compound `Cc1cc(-c2[nH]c3ccc(-c4nc(C)cs4)cc3c2C(C)C)ccn1` records IC50 below 3000 nM.
yes (1)

Please determine if `COc1ccc(-c2[nH]c3ccc(-c4nnc(C(=O)NCCN(C)C)o4)cc3c2C(C)C)cc1OC` is below 3000 nM in terms of IC50.
yes (1)

Strictly below 3000 nM in IC50? `Cc1cc(-c2[nH]c3ccc(-c4ccnc(C5CCN(C(C)C)CC5)c4)cc3c2C(C)C)cc(C)n1`
yes (1)

Please check: IC50 for `Cc1cc(-c2[nH]c3ccc(-c4cc5c(s4)CN(C(=O)CS(C)(=O)=O)CC5)cc3c2C(C)C)cc(C)n1` , strictly under 3000 nM or not?
no (0)

In the record for `CCN(CCN(C)C)C(=O)c1nnc(-c2ccc3[nH]c(-c4cc(C)nc(C)c4)c(C(C)C)c3c2)o1` , is IC50 less than 3000 nM?
yes (1)

Is IC50 strictly under 3000 nM for the entry CCc1c(-c2ccnc(C)c2)[nH]c2ccc(-c3noc(C4CCNC4)n3)cc12 (stereo not drawn) ?
yes (1)

Determine whether this compound shows IC50 lower than 3000 nM (ties excluded): COc1ccc(-c2[nH]c3ccc(-c4cnc(N5CCN(CCC(C)O)CC5)nc4)cc3c2C(C)C)cc1OC (stereo not drawn)
no (0)

Take the compound `Cc1cc(-c2[nH]c3ccc(-c4sc(C5CCNCC5)nc4C)cc3c2C(C)C)ccn1` and say whether its IC50 is less than 3000 nM.
yes (1)

Lab log: compare recorded IC50 with 3000 nM; is it strictly lower for Cc1cc(-c2[nH]c3ccc(-c4nnc(C5CCCN(C(C)C)C5)o4)cc3c2CC(F)F)cc(C)n1 (stereo not drawn) [Example 327] ?
yes (1)

Is it true that IC50 reported for `CC(C)c1c(-c2ccnc3[nH]ncc23)[nH]c2ccc(-c3nnc(CN4CCOCC4)o3)cc12` is less than 3000 nM?
no (0)

Please check: IC50 for `Cc1cc(-c2[nH]c3ccc(-c4nc5c(s4)CCN(CC(=O)N(C)C)C5)cc3c2C(C)C)cc(C)n1` , strictly under 3000 nM or not?
no (0)

Input `Cc1cc(-c2[nH]c3ccc(-c4nnc(C(=O)NC5CCN(C(C)C)CC5)o4)cc3c2C(C)C)cc(C)n1` ; condition: IC50 strictly below 3000 nM. Does it hold?
yes (1)

Consider COc1ccc(-c2[nH]c3ccc(-c4ccnc(N5CCN(CCC(C)O)CC5)c4)cc3c2C(C)C)cc1OC (stereo not drawn) . Does its IC50 lie strictly below 3000 nM?
no (0)

Is IC50 strictly under 3000 nM for the entry `COc1ccc(-c2[nH]c3ccc(-c4cccc(N5CCNCC5)c4)cc3c2C(C)C)cc1OC` ?
no (0)
